Species: Rattus norvegicus
test-protocol: Open TG-GATES - Regimen: Daily Repeat
Assay type: toxicity, organism-based, Sprague-Dawley
Parameters: regimen Daily Repeat, gender Male, age 6 weeks
condition-set: in vivo, po, 100 mg/kg, […], tissue Plasma, route gavage, dose level Low, time 14 day
Recorded TBIL by entry
measurement-kind: TBIL (mg/dL)

>>> reported("O=C(OC[C@H]1O[C@@H](OC(=O)c2cc(O)c(O)c(OC(=O)c3cc(O)c(O)c(O)c3)c2)[C@H](OC(=O)c2cc(O)c(O)c(OC(=O)c3cc(O)c(O)c(O)c3)c2)[C@@H](OC(=O)c2cc(O)c(O)c(OC(=O)c3cc(O)c(O)c(O)c3)c2)[C@@H]1OC(=O)c1cc(O)c(O)c(OC(=O)c2cc(O)c(O)c(O)c2)c1)c1cc(O)c(O)c(OC(=O)c2cc(O)c(O)c(O)c2)c1")
0.3
>>> reported("Cc1nnc2n1-c1ccc(Cl)cc1C(c1ccccc1Cl)=NC2")
0.04
>>> reported("COC(=O)C1=C(C)NC(C)=C(C(=O)OC)C1c1ccccc1[N+](=O)[O-]")
0.026
>>> reported("CNC(=C[N+](=O)[O-])NCCSCc1ccc(CN(C)C)o1")
0.2
>>> reported("CN/C(=N/CCSCc1nc[nH]c1C)NC#N")
0.2
>>> reported("CCOc1ccc(NC(C)=O)cc1")
0.062
